experiment.description: Cmax in rat at 2 mg/kg, iv and 4 mg/kg, po
Assay type: ADME, organism-based
settings: in vivo
endpoint.name: Cmax (ng/mL)

molecule: CC(=O)Nc1ccc(-c2ccc(C(CN3CCOCC3)N(C)C(=O)CN3C(=O)COc4cc(C)c(C)cc43)cc2)cc1 (configuration not stated)
assay.value: 600
--
molecule: CNC(=O)c1cccc(-c2ccc(C(CN3CCOCC3)N(C)C(=O)Cn3c(=O)cnc4cc(Cl)c(Cl)cc43)cc2)c1 (configuration not stated)
assay.value: 1100
--
molecule: CN(C(=O)CN(CC#N)c1ccc(Cl)c(Cl)c1)C(CN1CCCC1)c1ccc(-c2cccc(C(N)=O)c2)cc1 (configuration not stated)
assay.value: 340
--
molecule: CN(C(=O)CN1C(=O)COc2cc(Cl)c(Cl)cc21)[C@H](CN1CCOCC1)c1ccc(-c2ccccc2)cc1
assay.value: 230
--
molecule: CN(C(=O)CN1C(=O)COc2cc(Cl)c(Cl)cc21)[C@@H](CN1CCOCC1)c1ccc(-c2ccccc2)cc1
assay.value: 200
--
molecule: COc1cccc(-c2ccc(C(CN3CCOCC3)N(C)C(=O)CN3C(=O)COc4cc(Cl)c(Cl)cc43)cc2)c1 (configuration not stated)
assay.value: 290
--
molecule: CN(C(=O)CN1C(=O)COc2cc(Cl)c(Cl)cc21)C(CN1CCOCC1)c1ccc(-c2ccccc2)cc1 (racemic)
assay.value: 160

* * *

pIC50 tested on Cytochrome P450 3A4 (Homo sapiens, UniProt P08684): recorded values
Sequence (P08684 whole entry): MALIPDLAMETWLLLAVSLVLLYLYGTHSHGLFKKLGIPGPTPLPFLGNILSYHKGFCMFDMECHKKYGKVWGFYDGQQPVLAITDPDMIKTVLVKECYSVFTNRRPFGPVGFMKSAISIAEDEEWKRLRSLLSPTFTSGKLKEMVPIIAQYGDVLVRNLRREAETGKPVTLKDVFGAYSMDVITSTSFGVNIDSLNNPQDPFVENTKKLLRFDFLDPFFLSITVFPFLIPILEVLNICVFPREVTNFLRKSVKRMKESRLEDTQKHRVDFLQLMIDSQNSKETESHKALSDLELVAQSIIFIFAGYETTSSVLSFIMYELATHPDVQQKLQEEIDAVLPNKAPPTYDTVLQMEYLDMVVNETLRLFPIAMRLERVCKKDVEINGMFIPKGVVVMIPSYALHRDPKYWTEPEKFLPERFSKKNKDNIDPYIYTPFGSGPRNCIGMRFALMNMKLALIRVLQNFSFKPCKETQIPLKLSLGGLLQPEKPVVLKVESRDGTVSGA
pIC50: −log10 of the molar value.

molecule: COc1cccc(-c2ccc(C(CN3CCOCC3)N(C)C(=O)CN3C(=O)COc4cc(Cl)c(Cl)cc43)cc2)c1 (centres undefined)
pIC50: 6.00
--
molecule: CNC(=O)c1cccc(-c2ccc(C(CN3CCOCC3)N(C)C(=O)Cn3c(=O)cnc4cc(C)c(C)cc43)cc2)c1 (centres undefined)
pIC50: 5.05
--
molecule: CN(CC(=O)N(C)C(CN1CCOCC1)c1ccc(-c2ccccc2)cc1)c1ccc(Cl)c(Cl)c1 (centres undefined)
pIC50: 5.68
--
molecule: CN(CC(=O)N(C)C(CN1CCCC1)c1ccc(-c2ccccc2)cc1)c1ccc(Cl)c(Cl)c1 (centres undefined)
pIC50: 5.31

* * *

experiment.description: Volume of distribution at steady state in rat at 2 mg/kg, iv and 4 mg/kg, po
Type: ADME, organism-based
settings: in vivo, read-out: Vdss
Lab note - cut at 20 L/kg for Vd: Criterion met if strictly below, Criterion not met if not.

compound: CN(C(=O)CN1C(=O)COc2cc(Cl)c(Cl)cc21)[C@H](CN1CCOCC1)c1ccc(-c2ccccc2)cc1
category: Criterion met
//
compound: CNC(=O)c1cccc(-c2ccc(C(CN3CCOCC3)N(C)C(=O)Cn3c(=O)cnc4cc(C)c(C)cc43)cc2)c1 (stereo not drawn)
category: Criterion met
//
compound: CN(C(=O)CN1C(=O)COc2cc(Cl)c(Cl)cc21)[C@@H](CN1CCOCC1)c1ccc(-c2ccccc2)cc1
category: Criterion met
//
compound: CNC(=O)c1cccc(-c2ccc(C(CN3CCOCC3)N(C)C(=O)Cn3c(=O)cnc4cc(Cl)c(Cl)cc43)cc2)c1 (stereo not drawn)
category: Criterion met
//
compound: CN(C(=O)CN1C(=O)COc2cc(Cl)c(Cl)cc21)C(CN1CCOCC1)c1ccc(-c2ccccc2)cc1 (racemic)
category: Criterion not met
//
compound: CC(=O)Nc1ccc(-c2ccc(C(CN3CCOCC3)N(C)C(=O)CN3C(=O)COc4cc(C)c(C)cc43)cc2)cc1 (stereo not drawn)
category: Criterion met

* * *

tested.system: Cytochrome P450 2D6 (Homo sapiens, UniProt P10635)
Sequence (P10635 whole entry): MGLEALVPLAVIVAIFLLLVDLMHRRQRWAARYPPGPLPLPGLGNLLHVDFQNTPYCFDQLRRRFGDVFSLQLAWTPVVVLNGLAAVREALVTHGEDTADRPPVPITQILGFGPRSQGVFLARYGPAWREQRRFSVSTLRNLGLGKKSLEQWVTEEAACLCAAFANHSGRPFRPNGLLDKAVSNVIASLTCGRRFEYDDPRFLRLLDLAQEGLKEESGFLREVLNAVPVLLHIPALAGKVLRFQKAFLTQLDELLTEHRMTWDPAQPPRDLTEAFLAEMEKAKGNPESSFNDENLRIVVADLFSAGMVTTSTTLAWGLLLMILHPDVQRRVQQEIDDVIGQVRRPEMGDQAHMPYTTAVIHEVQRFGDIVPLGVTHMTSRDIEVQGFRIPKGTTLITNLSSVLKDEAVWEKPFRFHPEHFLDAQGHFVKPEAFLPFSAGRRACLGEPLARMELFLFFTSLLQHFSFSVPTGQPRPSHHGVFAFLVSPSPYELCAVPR
Recorded IC50 for the following compounds

compound: CN(CC(=O)N(C)C(CN1CCCC1)c1ccc(-c2ccccc2)cc1)c1ccc(Cl)c(Cl)c1 (centres undefined)
IC50 (µM): 5.9

compound: CNC(=O)c1cccc(-c2ccc(C(CN3CCOCC3)N(C)C(=O)Cn3c(=O)cnc4cc(Cl)c(Cl)cc43)cc2)c1 (centres undefined)
IC50 (µM): 33

compound: CN(CC(=O)N(C)C(CN1CCOCC1)c1ccc(-c2ccccc2)cc1)c1ccc(Cl)c(Cl)c1 (centres undefined)
IC50 (µM): 16

compound: CC(=O)Nc1ccc(-c2ccc(C(CN3CCOCC3)N(C)C(=O)CN3C(=O)COc4cc(C)c(C)cc43)cc2)cc1 (centres undefined)
IC50 (µM): 30

* * *

experiment.description: Oral bioavailability in rat at 4 mg/kg
Assay type: ADME, organism-based
settings: in vivo
endpoint.name: bioavailability (%)

compound: CN(C(=O)CN1C(=O)COc2cc(Cl)c(Cl)cc21)[C@H](CN1CCOCC1)c1ccc(-c2ccccc2)cc1
endpoint.name: bioavailability
assay.value: 17

compound: CN(C(=O)CN(CC#N)c1ccc(Cl)c(Cl)c1)C(CN1CCCC1)c1ccc(-c2cccc(C(N)=O)c2)cc1 (configuration not stated)
endpoint.name: bioavailability
assay.value: 36

compound: CNC(=O)c1cccc(-c2ccc(C(CN3CCOCC3)N(C)C(=O)Cn3c(=O)cnc4cc(C)c(C)cc43)cc2)c1 (configuration not stated)
endpoint.name: bioavailability
assay.value: 39

compound: COc1cccc(-c2ccc(C(CN3CCOCC3)N(C)C(=O)CN3C(=O)COc4cc(Cl)c(Cl)cc43)cc2)c1 (configuration not stated)
endpoint.name: bioavailability
assay.value: 30

compound: CC(=O)Nc1ccc(-c2ccc(C(CN3CCOCC3)N(C)C(=O)CN3C(=O)COc4cc(C)c(C)cc43)cc2)cc1 (configuration not stated)
endpoint.name: bioavailability
assay.value: 83

compound: CN(C(=O)CN1C(=O)COc2cc(Cl)c(Cl)cc21)[C@@H](CN1CCOCC1)c1ccc(-c2ccccc2)cc1
endpoint.name: bioavailability
assay.value: 43

compound: CNC(=O)c1cccc(-c2ccc(C(CN3CCOCC3)N(C)C(=O)Cn3c(=O)cnc4cc(Cl)c(Cl)cc43)cc2)c1 (configuration not stated)
endpoint.name: bioavailability
assay.value: 29

* * *

tested.system: Kappa-type opioid receptor (Homo sapiens, UniProt P41145)
Sequence (P41145 whole entry): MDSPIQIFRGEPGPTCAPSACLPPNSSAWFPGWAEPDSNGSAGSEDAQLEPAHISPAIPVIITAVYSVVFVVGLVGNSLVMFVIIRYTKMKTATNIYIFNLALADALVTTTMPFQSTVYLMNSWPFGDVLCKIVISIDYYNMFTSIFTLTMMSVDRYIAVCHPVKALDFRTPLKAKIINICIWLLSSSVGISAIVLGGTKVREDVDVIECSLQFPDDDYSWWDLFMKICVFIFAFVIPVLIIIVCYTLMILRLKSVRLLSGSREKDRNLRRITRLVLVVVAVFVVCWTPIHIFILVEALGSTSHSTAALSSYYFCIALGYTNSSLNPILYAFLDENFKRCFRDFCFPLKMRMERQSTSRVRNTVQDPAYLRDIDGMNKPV
experiment.description: Agonist activity at kappa opioid receptor
endpoint.name: log10 of EC50 (log10 of the value in nM)

molecule: CN(C(=O)CN1C(=O)COc2cc(Cl)c(Cl)cc21)[C@H](CN1CCOCC1)c1ccc(-c2ccccc2)cc1
tested.system: Kappa-type opioid receptor (Homo sapiens, UniProt P41145)
log10 of EC50: 1.60
//
molecule: COc1cccc(-c2ccc(C(CN3CCOCC3)N(C)C(=O)CN3C(=O)COc4cc(Cl)c(Cl)cc43)cc2)c1 (stereo unspecified)
tested.system: Kappa-type opioid receptor (Homo sapiens, UniProt P41145)
log10 of EC50: 2.20
//
molecule: COCCN(CC(=O)N(C)C(CN1CCCC1)c1ccc(-c2ccc(C(N)=O)cc2)cc1)c1ccc(Cl)c(Cl)c1 (stereo unspecified)
tested.system: Kappa-type opioid receptor (Homo sapiens, UniProt P41145)
log10 of EC50: 2.00
//
molecule: CNC(=O)c1cccc(-c2ccc(C(CN3CCOCC3)N(C)C(=O)Cn3c(=O)cnc4cc(Cl)c(Cl)cc43)cc2)c1 (stereo unspecified)
tested.system: Kappa-type opioid receptor (Homo sapiens, UniProt P41145)
log10 of EC50: 3.30
//
molecule: CN(CC(=O)N(C)C(CN1CCCC1)c1ccc(-c2ccccc2)cc1)c1ccc(Cl)c(Cl)c1 (stereo unspecified)
tested.system: Kappa-type opioid receptor (Homo sapiens, UniProt P41145)
log10 of EC50: 1.20
//
molecule: CN(CC(=O)N1CCC[C@@H](c2ccccc2)[C@H]1CN1CCCC1)c1ccc(Cl)c(Cl)c1
tested.system: Kappa-type opioid receptor (Homo sapiens, UniProt P41145)
log10 of EC50: 3.30
//
molecule: CC(=O)Nc1ccc(-c2ccc(C(CN3CCOCC3)N(C)C(=O)CN3C(=O)COc4cc(C)c(C)cc43)cc2)cc1 (stereo unspecified)
tested.system: Kappa-type opioid receptor (Homo sapiens, UniProt P41145)
log10 of EC50: 2.90
//
molecule: CN(CC(=O)N(C)C(CN1CCCC1)c1ccccc1)c1ccc(Cl)c(Cl)c1 (racemic)
tested.system: Kappa-type opioid receptor (Homo sapiens, UniProt P41145)
log10 of EC50: -0.70
//
molecule: CN(CC(=O)N(C)[C@@H](CN1CCCC1)c1ccccc1)c1ccc(Cl)c(Cl)c1
tested.system: Kappa-type opioid receptor (Homo sapiens, UniProt P41145)
log10 of EC50: 0.60
//
molecule: CN(CC(=O)N1CCC[C@H](c2ccccc2)[C@@H]1CN1CCCC1)c1ccc(Cl)c(Cl)c1
tested.system: Kappa-type opioid receptor (Homo sapiens, UniProt P41145)
log10 of EC50: 3.80
//
molecule: CN(C(=O)CN(CC#N)c1ccc(Cl)c(Cl)c1)C(CN1CCCC1)c1ccc(-c2cccc(C(N)=O)c2)cc1 (stereo unspecified)
tested.system: Kappa-type opioid receptor (Homo sapiens, UniProt P41145)
log10 of EC50: 1.51
//
molecule: CNC(=O)c1cccc(-c2ccc(C(CN3CCOCC3)N(C)C(=O)Cn3c(=O)cnc4cc(C)c(C)cc43)cc2)c1 (stereo unspecified)
tested.system: Kappa-type opioid receptor (Homo sapiens, UniProt P41145)
log10 of EC50: 3.60
//
molecule: CN(CC(=O)N(C)C(CN1CCOCC1)c1ccc(-c2ccccc2)cc1)c1ccc(Cl)c(Cl)c1 (stereo unspecified)
tested.system: Kappa-type opioid receptor (Homo sapiens, UniProt P41145)
log10 of EC50: 3.20
//
molecule: CN(CC(=O)N(C)[C@H](CN1CCCC1)c1ccccc1)c1ccc(Cl)c(Cl)c1
tested.system: Kappa-type opioid receptor (Homo sapiens, UniProt P41145)
log10 of EC50: -1.00
//
molecule: CN(C(=O)CN1C(=O)COc2cc(Cl)c(Cl)cc21)C(CN1CCOCC1)c1ccc(-c2ccccc2)cc1 (racemic)
tested.system: Kappa-type opioid receptor (Homo sapiens, UniProt P41145)
log10 of EC50: 2.51
//
molecule: CN(C(=O)CN1C(=O)COc2cc(Cl)c(Cl)cc21)[C@@H](CN1CCOCC1)c1ccc(-c2ccccc2)cc1
tested.system: Kappa-type opioid receptor (Homo sapiens, UniProt P41145)
log10 of EC50: 2.90

These entries and their values trace back to ChEMBL document CHEMBL1157450.
